test system: MCF7; assay: Inhibitory concentration required to reduce MCF-7 tumor cell growth by 50% in MTT assay; format: functional, cell-based; conditions: Homo sapiens
pIC50: −log10 of the molar value.
result.type: pIC50

P. CC(/C=C/C(=O)NO)=C\[C@@H](C)C(=O)c1ccc(N(C)C)cc1 [TRICHOSTATIN]
Q. O=C(CCCCCCC(=O)c1ccc(N2CCN(c3ccccc3)CC2)cc1)NO
# compare pIC50 for P vs Q ; return the one with the smaller value Use the label to indicate which entry you chose.
Q

* * *

tested on: NCI-H446; assay: Inhibitory concentration required to reduce H446 tumor cell growth by 50% in MTT assay; format: functional, cell-based; conditions: Homo sapiens
result.type: IC50 (nM)

I. CC(/C=C/C(=O)NO)=C\[C@@H](C)C(=O)c1ccc(N(C)C)cc1 [TRICHOSTATIN]
II. O=C(CCCCCCC(=O)c1ccc(N2CCN(c3ccccc3)CC2)cc1)NO
# compare IC50 for I vs II ; return the one with the smaller value Use the label to indicate which entry you chose.
I
(I: 80 nM, II: 1000 nM)
